System: PBMCs from dogs immunised with CDV
assay-remarks: T-cell proliferation after in vitro stimulation of PBMC with peptide pools, tested with autologous APCs and single peptides
Type: cell-based, dog
particulars: Table 5; Kelpie Pointer
Description: An alternate strategy was used to increase the precursor frequency of specific T cells recognising the CDV peptides. Fresh PBMCs obtained from these hyperimmunised dogs were subjected to stimulation in vitro with pools of all 94 peptides for 30 minutes at 37° C. The cells were then washed to remove any excess peptides and cultured for 7 days. This population of T cells was then tested with autologous APCs with every single peptide as the antigen. […]
value-kind: Stimulatory index
Answer with a number only.

TAAQITAGIALHQSNLN [Peptide P35]	2

// switching to the query sequence
For the sequence shown here, TRSRKQTSHRLKNIPVH (canine distemper virus; synthetic peptide from canine distemper virus fusion protein (CDV-F) designated peptide P10) , give the reported Stimulatory index.
2.4

----------
Tested on: PBMCs from dogs immunised with CDV
assay-remarks: T-cell proliferation after in vitro stimulation of PBMC with peptide pools, tested with autologous APCs and single peptides
Type: cell-based, dog
particulars: Table 1; Beagle Foxhound (Dog #19)
Stimulatory index listing for selected sequences.
Answer with a number only.

GIALHQSNLNAQAIQSL (canine distemper virus; synthetic peptide from canine distemper virus fusion protein (CDV-F) designated peptide P36)	3.7

// switching to the query sequence
For the sequence shown here, TELLSIFGPSLRDPISA (canine distemper virus; synthetic peptide from canine distemper virus fusion protein (CDV-F) designated peptide P47) , give the reported Stimulatory index.
85.7

----------
Test system: PBMCs from dogs immunised with CDV
assay-remarks: T-cell proliferation after in vitro stimulation of PBMC with peptide pools, tested with autologous APCs and single peptides
Assay type: cell-based, dog
particulars: Table 5; Kelpie Pointer
value-kind: Stimulatory index

// worked examples, Stimulatory index included
PRYIATNGYLISNFDES (canine distemper virus; synthetic peptide from canine distemper virus fusion protein (CDV-F) designated peptide P62)	<2
TSTIINQSPDKLLTFIA (canine distemper virus; synthetic peptide from canine distemper virus fusion protein (CDV-F) designated peptide P74)	<2

// switching to the query sequence
For the sequence shown here, FAGVVLAGVALGVATAA (canine distemper virus; synthetic peptide from canine distemper virus fusion protein (CDV-F) designated peptide P33) , give the reported Stimulatory index.
2

----------
Stimulatory index listing for selected sequences.
System: PBMCs from dogs immunised with CDV
assay-remarks: T-cell proliferation after in vitro stimulation of PBMC with peptide pools, tested with autologous APCs and single peptides
Format: cell-based, dog
particulars: Table 5; Poodle Shitzu
Answer with a number only.

// worked examples, Stimulatory index included
SPDKLLTFIASDTCPLV (canine distemper virus; synthetic peptide from canine distemper virus fusion protein (CDV-F) designated peptide P75)	10
TRSRKQTSHRLKNIPVH (canine distemper virus; synthetic peptide from canine distemper virus fusion protein (CDV-F) designated peptide P10)	50
DESSCVFVSESAICSQN (canine distemper virus; synthetic peptide from canine distemper virus fusion protein (CDV-F) designated peptide P64)	50
TSTIINQSPDKLLTFIA (canine distemper virus; synthetic peptide from canine distemper virus fusion protein (CDV-F) designated peptide P74)	4
EPINQALTLMTKNVKPL (canine distemper virus; synthetic peptide from canine distemper virus fusion protein (CDV-F) designated peptide P29)	2
SSKTQTHTQQDRPPQPS (canine distemper virus; synthetic peptide from canine distemper virus fusion protein (CDV-F) designated peptide P2)	140
QPSTELEETRTSRARHS (canine distemper virus; synthetic peptide from canine distemper virus fusion protein (CDV-F) designated peptide P4)	44
PRYIATNGYLISNFDES (canine distemper virus; synthetic peptide from canine distemper virus fusion protein (CDV-F) designated peptide P62)	24

// switching to the query sequence
For the sequence shown here, CIRGDTSSCARTLVSGT (canine distemper virus; synthetic peptide from canine distemper virus fusion protein (CDV-F) designated peptide P68) , give the reported Stimulatory index.
5

----------
Tested on: PBMCs from dogs immunised with CDV
assay-remarks: T-cell proliferation after in vitro stimulation of PBMC with peptide pools, tested with autologous APCs and single peptides
Type: cell-based, dog
particulars: Table 5; Fox Terrier
value-kind: Stimulatory index

// worked examples, Stimulatory index included
QPSTELEETRTSRARHS (canine distemper virus; synthetic peptide from canine distemper virus fusion protein (CDV-F) designated peptide P4)	<2
DESSCVFVSESAICSQN (canine distemper virus; synthetic peptide from canine distemper virus fusion protein (CDV-F) designated peptide P64)	<2
KLIPNASLIENCTKAEL (canine distemper virus; synthetic peptide from canine distemper virus fusion protein (CDV-F) designated peptide P25)	2.6
PRTSDRPVSYTMNRTRS (canine distemper virus; synthetic peptide from canine distemper virus fusion protein (CDV-F) designated peptide P8)	<2
SPDKLLTFIASDTCPLV (canine distemper virus; synthetic peptide from canine distemper virus fusion protein (CDV-F) designated peptide P75)	<2

For the sequence shown here, TAAQITAGIALHQSNLN [Peptide P35] , give the reported Stimulatory index.
2.2

For the sequence shown here, PRYIATNGYLISNFDES (canine distemper virus; synthetic peptide from canine distemper virus fusion protein (CDV-F) designated peptide P62) , give the reported Stimulatory index.
<2

----------
System: LHRH
assay-remarks: Trial in BALB/c mice: antibody response to LHRH by ELISA
Format: in vivo
particulars: BALB/c mice
Description: The canine vaccines with CDV-F derived Th-epitopes and LHRH used in Example 3 were also used to immunise BALB/c mice to investigate if the Th-epitopes would be functional in a different animal species. […] Mice were vaccinated with 100 μl of the vaccine at the base of tail. […] Effective T-cell help was determined by measuring the antibody response to LHRH by ELISA.
value-kind: antibody titres to LHRH

// worked examples, antibody titres to LHRH included
SPDKLLTFIASDTCPLV (canine distemper virus; synthetic peptide from canine distemper virus fusion protein (CDV-F) designated peptide P75)	low antibody titres
TAAQITAGIALHQSNLN [Peptide P35]	low antibody titres
PRTSDRPVSYTMNRTRS (canine distemper virus; synthetic peptide from canine distemper virus fusion protein (CDV-F) designated peptide P8)	undetectable levels
SSKTQTHTQQDRPPQPS (canine distemper virus; synthetic peptide from canine distemper virus fusion protein (CDV-F) designated peptide P2)	undetectable levels

// switching to the query sequence
For the sequence shown here, PRYIATNGYLISNFDES (canine distemper virus; synthetic peptide from canine distemper virus fusion protein (CDV-F) designated peptide P62) , give the reported antibody titres to LHRH.
undetectable levels

----------
Tested on: PBMCs from dogs immunised with CDV
assay-remarks: T-cell proliferation after in vitro stimulation of PBMC with peptide pools, tested with autologous APCs and single peptides
Assay type: cell-based, dog
particulars: Table 5; Kelpie Pointer
value-kind: Stimulatory index
Answer with a number only.

PRTSDRPVSYTMNRTRS (canine distemper virus; synthetic peptide from canine distemper virus fusion protein (CDV-F) designated peptide P8)	2.8
KLIPNASLIENCTKAEL (canine distemper virus; synthetic peptide from canine distemper virus fusion protein (CDV-F) designated peptide P25)	2.6
QPSTELEETRTSRARHS (canine distemper virus; synthetic peptide from canine distemper virus fusion protein (CDV-F) designated peptide P4)	3.5
SSKTQTHTQQDRPPQPS (canine distemper virus; synthetic peptide from canine distemper virus fusion protein (CDV-F) designated peptide P2)	2.6

// switching to the query sequence
For the sequence shown here, NLNAQAIQSLRTSLEQS (canine distemper virus; synthetic peptide from canine distemper virus fusion protein (CDV-F) designated peptide P37) , give the reported Stimulatory index.
2

----------
Stimulatory index listing for selected sequences.
Tested on: PBMCs from dogs immunised with CDV
assay-remarks: T-cell proliferation after in vitro stimulation of PBMC with peptide pools, tested with autologous APCs and single peptides
Format: cell-based, dog
particulars: Table 5; Poodle Shitzu
Answer with a number only.

RHSTTSAQRSTHYDPRT (canine distemper virus; synthetic peptide from canine distemper virus fusion protein (CDV-F) designated peptide P6)	38

For the sequence shown here, PRTSDRPVSYTMNRTRS (canine distemper virus; synthetic peptide from canine distemper virus fusion protein (CDV-F) designated peptide P8) , give the reported Stimulatory index.
100

----------
Test system: PBMCs from dogs immunised with CDV
assay-remarks: T-cell proliferation after in vitro stimulation of PBMC with peptide pools, tested with autologous APCs and single peptides
Assay type: cell-based, dog
particulars: Table 1; Beagle Foxhound (Dog #19)
value-kind: Stimulatory index
Answer with a number only.

// worked examples, Stimulatory index included
KLIPNASLIENCTKAEL (canine distemper virus; synthetic peptide from canine distemper virus fusion protein (CDV-F) designated peptide P25)	11.9
AELGEYEKLLNSVLEPI (canine distemper virus; synthetic peptide from canine distemper virus fusion protein (CDV-F) designated peptide P27)	34

For the sequence shown here, NLNAQAIQSLRTSLEQS (canine distemper virus; synthetic peptide from canine distemper virus fusion protein (CDV-F) designated peptide P37) , give the reported Stimulatory index.
10.9

For the sequence shown here, PRYIATNGYLISNFDES (canine distemper virus; synthetic peptide from canine distemper virus fusion protein (CDV-F) designated peptide P62) , give the reported Stimulatory index.
51

----------
System: PBMCs from dogs immunised with CDV
assay-remarks: T-cell proliferation after in vitro stimulation of PBMC with peptide pools, tested with autologous APCs and single peptides
Format: cell-based, dog
particulars: Table 2; Beagle Foxhound (Dog #72); one dose of 3 in 1 vaccine
Stimulatory index listing for selected sequences.
Answer with a number only.

// worked examples, Stimulatory index included
IGTDNVHYKIMTRPSHQ (canine distemper virus; synthetic peptide from canine distemper virus fusion protein (CDV-F) designated peptide P22)	2.6
FAGVVLAGVALGVATAA (canine distemper virus; synthetic peptide from canine distemper virus fusion protein (CDV-F) designated peptide P33)	1.6
AELGEYEKLLNSVLEPI (canine distemper virus; synthetic peptide from canine distemper virus fusion protein (CDV-F) designated peptide P27)	3.5

For the sequence shown here, NLNAQAIQSLRTSLEQS (canine distemper virus; synthetic peptide from canine distemper virus fusion protein (CDV-F) designated peptide P37) , give the reported Stimulatory index.
1.7
